Tested on: U2OS
methodNotes: Multiplex assay against U2OS
Format: toxicity, cell-based
cond: human, 24 h, 10 µM, compound concentration 10 uM, replicate 1
Exercise: for every item that follows, state its recorded Population Apoptotic (%).
Answers are plain numbers, in %.

Can you give me Population Apoptotic (%) for all of these, one by one?
1. CC(=O)Nc1cccc2c1c(Sc1ccc(Cl)cc1)c(C)n2CC(=O)O [AZD1981]
2. CCCCC(=O)N(Cc1ccc(-c2ccccc2-c2nnn[nH]2)cc1)[C@H](C(=O)O)C(C)C
3. C[C@H](N)COC(=O)[C@@H](CCCCN)NC(=O)Cc1c(-c2ccc3ccccc3c2)[nH]c2c1ccc1ccccc12
4. Cc1noc(-c2ccc(-c3ccc(CC(=O)O)cc3)cc2)c1NC(=O)O[C@H](C)c1ccccc1Cl
5. CCCOc1ccc2[nH]cc(C3=CCNCC3)c2n1.Cl
6. Cc1cnc(-c2cc(N3CCN(C(=O)CCS(C)(=O)=O)CC3)ncc2Cl)c(C)c1
7. Cl.NCCc1ccc(O)c(O)c1 [DOPAMINE HYDROCHLORIDE]

[88, 82, 81, 92, 92, 80, 92]

Specify Population Apoptotic (%) for COC[C@@H](c1ccc(C(F)(F)F)cc1)N1CCN(C2(C)CCN(C(=O)c3c(C)ncnc3C)CC2)C[C@@H]1C.O=C(O)/C=C\C(=O)O [VICRIVIROC MALEATE] and stop.
80

* * *

Tested on: U2OS
methodNotes: Multiplex assay against U2OS
Format: toxicity, cell-based
cond: human, 48 h, 1 µM, compound concentration 1 uM, replicate 1
Rule: YES for Population Healthy Nuclei (%) not less than 60%, NO for anything less.

Reference set, count: 3
>>> labelvalue("COc1cccc2c1c(NS(=O)(=O)c1ccc(Cl)s1)nn2Cc1cccc(CNC(=O)C(C)(C)O)c1")
"YES"
>>> labelvalue("Cc1sc2c(c1C)C(c1ccc(Cl)cc1)=N[C@@H](CC(=O)NCCCCCCCCNC(=O)COc1cccc3c1C(=O)N(C1CCC(=O)NC1=O)C3=O)c1nnc(C)n1-2 (stereo not given in full)")
"NO"
>>> labelvalue("CC(C)c1noc(N2CCC(COc3ccc(-c4ccc(S(C)(=O)=O)cc4)nc3)CC2)n1 [GSK-1292263]")
"YES"

Here is another compound to look at.
Hello, I need to know if Br.CS(=O)(=O)Nc1c(O)ccc2c1CCCC2C1=NCCN1 (stereo not given) has measured Population Healthy Nuclei (%) not below 60%. Thanks!
YES

* * *

System: HEK-293T
methodNotes: Multiplex assay against HEK293T
Format: toxicity, cell-based
cond: human, 24 h, 10 µM, compound concentration 10 uM, replicate 2
measure: Population Mitochondria Different-Phenotype (%)
Give bare numbers, in %.

>>> reported("CCCCCC(O)/C=C/[C@H]1C(=O)CC(O)C1C/C=C\\CCCC(=O)O (stereo partly drawn)")
50
>>> reported("C[C@H](N)COC(=O)[C@@H](CCCCN)NC(=O)Cc1c(-c2ccc3ccccc3c2)[nH]c2c1ccc1ccccc12")
54

Give the observed Population Mitochondria Different-Phenotype (%) of Cl.N=C(N)NC(=O)Cc1c(Cl)cccc1Cl [GUANFACINE HYDROCHLORIDE] for HEK-293T.
50

* * *

Give Population Apoptotic (%) for every item shown.
System: U2OS
methodNotes: Multiplex assay against U2OS
Type: toxicity, cell-based
cond: human, 48 h, 10 µM, compound concentration 10 uM, replicate 2

Need Population Apoptotic (%) for each of these compounds.
1. CCCCC(=O)N(Cc1ccc(-c2ccccc2-c2nnn[nH]2)cc1)[C@H](C(=O)O)C(C)C
2. O=C1[C@H](Cc2ccc(O)cc2)N2C(=O)CCN(C(=O)NCc3ccccc3)[C@H]2CN1Cc1cccc2ccccc12
3. CN1CCN(c2cc(-c3ccccc3)nc(N)n2)CC1

1: 87%; 2: 81%; 3: 88%

* * *

Tested on: U2OS
methodNotes: Multiplex assay against U2OS
Type: toxicity, cell-based
cond: human, 12 h, 10 µM, compound concentration 10 uM, replicate 1
Task for the reader: assign each of the following molecules its reported Population Mitochondria Different-Phenotype (%).
Answers are plain numbers, in %.

Past entries and their recorded results:
>>> reported("CCCCC1=NC2(CCCC2)C(=O)N1Cc1ccc(-c2ccccc2-c2nnn[nH]2)cc1")
3
>>> reported("Cl.N=C(N)NC(=O)Cc1c(Cl)cccc1Cl [GUANFACINE HYDROCHLORIDE]")
3

Please turn your attention to the following entry.
Give Population Mitochondria Different-Phenotype (%); test system U2OS; molecule CCCCCC(O)/C=C/[C@H]1C(=O)CC(O)C1C/C=C\CCCC(=O)O (stereo partly drawn)
3

* * *

Tested on: U2OS
methodNotes: Multiplex assay against U2OS
Assay type: toxicity, cell-based
cond: human, 12 h, 10 µM, compound concentration 10 uM, replicate 1
Mark each entry condition met if its Population Membrane Permeable-Phenotype (%) sits below 8%, and condition not met for all others.

Observe how each entry below is paired with its result.
>>> labelvalue("Cc1sc2c(c1C)C(c1ccc(Cl)cc1)=N[C@@H](CC(=O)NCCCCCCCCNC(=O)COc1cccc3c1C(=O)N(C1CCC(=O)NC1=O)C3=O)c1nnc(C)n1-2 (stereo not given in full)")
"condition met"
>>> labelvalue("O=C(CCCc1ccccc1)Nc1nc2ccccc2c(=O)s1")
"condition met"
>>> labelvalue("CCc1cc2cc(NS(=O)(=O)c3ccc(C#N)cc3)ccc2n(CC)c1=O")
"condition not met"
>>> labelvalue("NCCc1cn(S(=O)(=O)c2c(Cl)nc3sccn23)c2ccccc12.O=C(O)C(=O)O")
"condition not met"
>>> labelvalue("CCCCC1=NC2(CCCC2)C(=O)N1Cc1ccc(-c2ccccc2-c2nnn[nH]2)cc1")
"condition met"
>>> labelvalue("O=C1[C@H](Cc2ccc(O)cc2)N2C(=O)CCN(C(=O)NCc3ccccc3)[C@H]2CN1Cc1cccc2ccccc12")
"condition not met"
>>> labelvalue("O=C(NCCN1CCC(n2c(=O)[nH]c3cc(Cl)ccc32)CC1)c1ccc(F)cc1 [HALOPEMIDE]")
"condition not met"

Now examine the next entry.
Decide: Population Membrane Permeable-Phenotype (%) of "CN1CCN(c2cc(-c3ccccc3)nc(N)n2)CC1" strictly below 8%?
condition met

* * *

Test system: U2OS
methodNotes: Multiplex assay against U2OS
Assay type: toxicity, cell-based
cond: human, 12 h, 10 µM, compound concentration 10 uM, replicate 2
Please go through the items and note down their Population Tubulin-Different-Phenotype (%).

Okay, here is my list. What is Population Tubulin-Different-Phenotype (%) for each of these?
1. CCCCCC(O)/C=C/[C@H]1C(=O)CC(O)C1C/C=C\CCCC(=O)O (stereo not given in full)
2. COc1cccc2c1c(NS(=O)(=O)c1ccc(Cl)s1)nn2Cc1cccc(CNC(=O)C(C)(C)O)c1
3. CCCOc1ccc2[nH]cc(C3=CCNCC3)c2n1.Cl
4. COc1ccccc1N1CCN(C[C@@H](C(=O)NC(C)(C)C)c2ccccc2)CC1.Cl.Cl
5. CN(C)C(=O)Cn1cc(-c2ccc(-c3cncc4ccccc34)cc2)cn1
6. Cc1c(CC(=O)O)c2cccnc2n1Cc1ccc(S(C)(=O)=O)cc1C(F)(F)F

1. 4%
2. 2%
3. 6%
4. 64%
5. 23%
6. 4%

* * *

Tested on: HEK-293T
methodNotes: Multiplex assay against HEK293T
Format: toxicity, cell-based
cond: human, 24 h, 1 µM, compound concentration 1 uM, replicate 2
I'd appreciate it if you could supply Population Healthy Nuclei (%) values for the items below.
A complete answer gives the number followed by the unit.

Here's what some known entries look like.
>>> reported("CCCOc1ccc2[nH]cc(C3=CCNCC3)c2n1.Cl")
"80%"
>>> reported("CCCCC1=NC2(CCCC2)C(=O)N1Cc1ccc(-c2ccccc2-c2nnn[nH]2)cc1")
"80%"
>>> reported("CCCCC(=O)N(Cc1ccc(-c2ccccc2-c2nnn[nH]2)cc1)[C@H](C(=O)O)C(C)C")
"82%"
>>> reported("Br.CS(=O)(=O)Nc1c(O)ccc2c1CCCC2C1=NCCN1 (configuration not stated)")
"80%"
>>> reported("COC[C@@H](c1ccc(C(F)(F)F)cc1)N1CCN(C2(C)CCN(C(=O)c3c(C)ncnc3C)CC2)C[C@@H]1C.O=C(O)/C=C\\C(=O)O [VICRIVIROC MALEATE]")
"82%"

Dear colleague, could you send me Population Healthy Nuclei (%) for each of the items below? Thanks.
1. CN[C@@H](C)C(=O)N[C@H](C(=O)N1CCC[C@H]1C(=O)Nc1snnc1-c1ccccc1)C1CCCCC1
2. CC(C)COc1ccc(CNC(=O)N(Cc2ccc(F)cc2)C2CCN(C)CC2)cc1
3. Cc1noc(-c2ccc(-c3ccc(CC(=O)O)cc3)cc2)c1NC(=O)O[C@H](C)c1ccccc1Cl

1: 82%; 2: 82%; 3: 80%

* * *

Test system: U2OS
methodNotes: Multiplex assay against U2OS
Type: toxicity, cell-based
cond: human, 24 h, 10 µM, compound concentration 10 uM, replicate 1
Could you please report measured Population Healthy Nuclei (%) for the items listed next?
Answers are plain numbers, in %.

// solved cases for Population Healthy Nuclei (%) follow
>>> reported("CCc1cc2cc(NS(=O)(=O)c3ccc(C#N)cc3)ccc2n(CC)c1=O")
67
>>> reported("CCCCC(=O)N(Cc1ccc(-c2ccccc2-c2nnn[nH]2)cc1)[C@H](C(=O)O)C(C)C")
59
>>> reported("CN[C@@H](C)C(=O)N[C@H](C(=O)N1CCC[C@H]1C(=O)Nc1snnc1-c1ccccc1)C1CCCCC1")
43

Now look at this entry.
Report Population Healthy Nuclei (%), nothing else, for this compound: "Cc1cnc(-c2cc(N3CCN(C(=O)CCS(C)(=O)=O)CC3)ncc2Cl)c(C)c1"
74
